# ASSAYED_TARGET: Human NHE3 (Homo sapiens, UniProt P48764)
# Construct: expressed in transfected cells; host or cells: Opossum kidney (OK) cells (ATCC), electroporation
# Sequence (P48764 26-834): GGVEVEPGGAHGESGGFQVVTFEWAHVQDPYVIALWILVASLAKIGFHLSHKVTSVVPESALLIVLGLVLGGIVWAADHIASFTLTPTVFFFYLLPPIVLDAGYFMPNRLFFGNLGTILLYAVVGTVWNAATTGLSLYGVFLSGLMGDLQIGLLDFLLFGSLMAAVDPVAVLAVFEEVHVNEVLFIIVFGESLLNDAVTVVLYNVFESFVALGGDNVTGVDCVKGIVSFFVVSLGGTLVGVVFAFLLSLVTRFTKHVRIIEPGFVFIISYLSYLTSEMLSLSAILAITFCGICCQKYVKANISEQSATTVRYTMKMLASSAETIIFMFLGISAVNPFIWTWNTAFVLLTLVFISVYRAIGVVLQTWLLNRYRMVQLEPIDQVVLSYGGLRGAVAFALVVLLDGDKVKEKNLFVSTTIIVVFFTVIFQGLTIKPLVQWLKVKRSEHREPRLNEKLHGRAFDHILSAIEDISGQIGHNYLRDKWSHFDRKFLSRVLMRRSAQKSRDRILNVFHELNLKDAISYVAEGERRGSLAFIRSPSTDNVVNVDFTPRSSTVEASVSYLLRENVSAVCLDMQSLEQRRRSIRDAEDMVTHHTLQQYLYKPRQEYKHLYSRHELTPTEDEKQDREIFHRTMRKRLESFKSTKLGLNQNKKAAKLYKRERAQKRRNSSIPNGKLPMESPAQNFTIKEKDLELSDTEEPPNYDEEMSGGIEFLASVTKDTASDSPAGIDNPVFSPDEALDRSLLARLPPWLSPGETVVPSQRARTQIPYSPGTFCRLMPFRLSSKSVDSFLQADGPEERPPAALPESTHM
# TEST_DESCRIPTION: Cell-based NHE3 activity under prompt conditions (OK cells, BCECF pH recovery), human NHE3
# CONDITION_INFO: prompt conditions

MOLECULE	Prompt Human NHE3 pIC50
CN1Cc2c(Cl)cc(Cl)cc2[C@H](c2cccc(S(=O)(=O)NCCOCCOCCNC(=O)NCCCCNC(=O)NCCOCCOCCNS(=O)(=O)c3cccc([C@@H]4CN(C)Cc5c(Cl)cc(Cl)cc54)c3)c2)C1 [compound 180]	8.30
NC(N)=Nc1nc(-c2ccc(N3CCN(CCOCCOCCNC(=O)[C@H](O)[C@@H](O)C(=O)NCCOCCOCCN4CCN(c5ccc(-c6nc(N=C(N)N)nc7ccc(Cl)cc67)cc5)CC4)CC3)cc2)c2cc(Cl)ccc2n1 [compound 17]	6.60
NCCOCCOCCOc1ccc(-c2nc(N=C(N)N)nc3ccc(Cl)cc23)cc1 [compound 11]	6.80
N=C(N)Nc1nc(-c2cccc(S(=O)(=O)NCCOCCOCCOCCN)c2)c2cc(Cl)ccc2n1 [compound 12]	7.00
NC(N)=Nc1nc(-c2cccc(N3CCN(CCOCCOCCNC(=O)NCCOCCOCCNC(=O)NCCCCNC(=O)NCCOCCOCCNC(=O)NCCOCCOCCN4CCN(c5cccc(-c6nc(N=C(N)N)nc7ccc(Cl)cc67)c5)CC4)CC3)c2)c2cc(Cl)ccc2n1 [compound 28]	8.10
O=C(NCCCCNC(=O)NCCOCCOCCNC(=O)Nc1cccc(O[C@H]2c3ccccc3C[C@@H]2N2CCCCC2)c1)NCCOCCOCCNC(=O)Nc1cccc(O[C@H]2c3ccccc3C[C@@H]2N2CCCCC2)c1 [compound 126]	6.55
CN(C)[C@H]1Cc2c(Cl)cc(Cl)cc2[C@@H]1Oc1ccc(S(=O)(=O)NCCOCCOCCNC(=O)CCC(C)(CCC(=O)NCCOCCOCCNS(=O)(=O)c2ccc(O[C@H]3c4cc(Cl)cc(Cl)c4C[C@@H]3N(C)C)cc2)NC(=O)CCC(=O)O)cc1 [compound 179]	7.77
CN(C)[C@H]1Cc2c(Cl)cc(Cl)cc2[C@@H]1Oc1ccc(S(=O)(=O)NCCOCCOCCNC(=O)[C@H](O)[C@@H](O)C(=O)NCCOCCOCCNS(=O)(=O)c2ccc(O[C@H]3c4cc(Cl)cc(Cl)c4C[C@@H]3N(C)C)cc2)cc1 [compound 150]	8.00
CN1CCN(C(=O)NC(CCC(=O)NCCOCCOCCNS(=O)(=O)c2cccc(C3CN(C)Cc4c(Cl)cc(Cl)cc43)c2)(CCC(=O)NCCOCCOCCNS(=O)(=O)c2cccc([C@@H]3CN(C)Cc4c(Cl)cc(Cl)cc43)c2)CCC(=O)NCCOCCOCCNS(=O)(=O)c2cccc([C@@H]3CN(C)Cc4c(Cl)cc(Cl)cc43)c2)CC1 (stereo in doubt) [compound 153]	7.50
NCCOCCOCCN1CCN(c2ccc(-c3nc(N=C(N)N)nc4ccc(Cl)cc34)cc2)CC1 [compound 19]	7.40
